# procedure.summary: yeast display, Sf9 membrane polyspecificity reagent, FACS + sequencing; frameworks hold sequencing errors

{"seq.string": "QVQLVESGGGLVQAGGSLRISCAASGGIFDTYVMGWYRQAPGKERELVAAISSSGSTTYADSVKGRFTISRDNAKNTVYLQMNSLKPEDTAVYYCNADYSTIWRYDYWGQGTQVTVSS", "polyreactivity (PSR sort gate)": "low polyreactivity"}
{"seq.string": "QVQLVESGGGLVQAGGSLRLSCAASGIISTYYVMGWYRQAPGKERELVAAITGGGTYYADSVKGRFTISRDNAKNTVYLQMNSLKPEDTAVYYCAVDGTYAYGYSRDYDYWGQGTQVTVSS", "polyreactivity (PSR sort gate)": "low polyreactivity"}

###

# procedure.summary: yeast display, Sf9 membrane polyspecificity reagent, FACS + sequencing; frameworks hold sequencing errors
measured.property: polyreactivity (PSR sort gate)

Solved entries:
{"seq.string": "QVQLVSSGGGLVQAGGSLSLSCAASGRTFCINAMGWYRQAPGKERELVAAIRTGGSTYYADSVKGRFTISRDNAKNTVYLQMNSLKPEDTAVYYCAAVLYHNRKTEYTYGYWGQGTQVTVSS", "val": "high polyreactivity"}
{"seq.string": "QVQLVESGGGLVQAGGSLRLSCAATGSIVYSNTMGWYRQSPGKERELVAAISTSDTSTYYADSVKGRFTISRDNGKNTVYLQMNSLKPQDTAVYYCNAVCSIVLYGYWGQGTQVTVSS", "val": "low polyreactivity"}
{"seq.string": "QVQLVESGGGLVQAGGSLRLSCAASGFTFRHNTMGWYRQAPGKERELVAAISIGGRTYYADSVKGRFTISRDNAKNTVYLQMNSLKPEDTAVYYCAKLSRGQSPGYDYWGQGTQVTVSS", "val": "high polyreactivity"}
{"seq.string": "QVQLVESGGGLVQAGGSLRLICAASGSIFSWYTMGWYRQAPGKERELVARITTSGGTTRYADSVKGRFTISRDNAKHTAFIQMNSLKPVDTAVYYCAADRSPYWRGYVRYNYWGQGTQVTVSS", "val": "high polyreactivity"}
{"seq.string": "QVQLVESGGALVQAGGSLRLSCAASGYIFAYYAMGWYRQAPGKERELVATISYGGGSTYYADSVKGRFTISRDNAKNTVYLQMNSLKPEDTAVYYCAAVPWASDGYYSWGQGTQVTVSS", "val": "low polyreactivity"}
{"seq.string": "QVQLVESGGGLVQAGGSLRLSCAASGFTFGQYAMGWYRQAPGKERELVAAIRWSGGSSYYADSVKGRFTISRDNAKNTVYLQMNSLKPEDTAVYYCAARRFDGYEYDYWGQGTQVTVSS", "val": "low polyreactivity"}
{"seq.string": "QVQLVESGGGLVQAGGSLRLSCAASGSTYRGNAMGWYRQAPGKEREFVAAITVSGGSTYYADSVKGRFTISRDNAKNTVFLQMNSLKPEDTAVYYCAARLTYNYYWGQGTQVTVSS", "val": "high polyreactivity"}
{"seq.string": "QVQLVESGGGLVQAGGSLRLSCAASGRTLFYYTMGWYRQAPGKERELVAAISSGDSTNYADSVKGRFTISRDNAKNTVYLQMNSLQPEDTAVYYCATQYLLDYKKTYRTYYSPYDYWGQGTQVTVSS", "val": "low polyreactivity"}

The sequence QVQLVESGGGLVQAGGSLRLSCAASGRTFEKYVMGWYRQAPGKERELVASISKRGGSTYYADSVKGRFTISRDNAKNTVYLQMNSLKPEDTAVYYCNKDSRASPYGYWGQGTQVTVSS showed polyreactivity (PSR sort gate) equal to high polyreactivity

The sequence QVQLVESGGGLVQAGGSLRLSCAASGRTFRYYAMGWYRPAPGKERELVATITGSGGSTYYADSVKGRFTISRDNAKNTVYLQMNSLKPEDTAVYYCNARKVRYPYRWYDYWGQGTQVTVSS showed polyreactivity (PSR sort gate) equal to high polyreactivity

The sequence QVQLVESGGGLVQAGGTLRLSCAASGLTFRYYAMGWYRQAPGKERELVAAITRRGSTYYADSVKGRFTISRDNAKNTVYFQMNSLKPEDTAVYYCATVTGFHSSPLRDLDYWGQGTQVTVSS showed polyreactivity (PSR sort gate) equal to high polyreactivity

The sequence QVQFEESGGGLVQAGGSLRLSCAASGSTFQGYAMGWYRQAPGKERELVAAISRSGGRTYYADSVKGRFTISRDNAKNTVYLQMNSLKPEDTAVYYCAAEGHELTEGDSWGQGTQVTVSS showed polyreactivity (PSR sort gate) equal to low polyreactivity

The sequence QVQLVESGGGLVQAGGSLRLSCAASGRIFYINAMGWYRQAPGKERELVAAITGGDGSTTYADSVKGRFTISRDNAKNTVYLQMNSLKPEDTAVYYCNAVTARKYAESQFDHWGQGTQVTVSS showed polyreactivity (PSR sort gate) equal to low polyreactivity

The sequence QVQLVESGGGLVQAGGSLRLSCAASGSTFLTNTMGWYRQAPGKERELVAIISRSSGTTYYSDSVKGRFTISRDNAKNTVYLQMNSLKPEDTAVYYCAKRYRRASPYSKNVYWGQGTQVTVSS showed polyreactivity (PSR sort gate) equal to high polyreactivity
